details: in isobutanol, 318.15 K

test-smiles	solubility (mole fraction)
CSCC[C@H](NC(=O)OCC1c2ccccc2-c2ccccc21)C(=O)O	0.032

* * *

conditions: in n-propyl acetate, 313.15 K

test-smiles	solubility (mole fraction)
CSCC[C@H](NC(=O)OCC1c2ccccc2-c2ccccc21)C(=O)O	0.0399

* * *

conditions: in sec-butanol, 283.15 K

test-smiles	solubility (mole fraction)
CSCC[C@H](NC(=O)OCC1c2ccccc2-c2ccccc21)C(=O)O	0.00898

* * *

conditions: in acetone, 288.15 K
measure: solubility (mole fraction)

test-smiles	measure	result
CSCC[C@H](NC(=O)OCC1c2ccccc2-c2ccccc21)C(=O)O	solubility (mole fraction)	0.0475

* * *

conditions: in n-butanol, 303.15 K
measure: solubility (mole fraction)

test-smiles	measure	result
CSCC[C@H](NC(=O)OCC1c2ccccc2-c2ccccc21)C(=O)O	solubility (mole fraction)	0.0295

* * *

settings: in n-butanol, 288.15 K
measure: solubility (mole fraction)

test-smiles	result
CSCC[C@H](NC(=O)OCC1c2ccccc2-c2ccccc21)C(=O)O	0.0178

* * *

conditions: in isopentanol, 288.15 K
measure: solubility (mole fraction)

test-smiles	result
CSCC[C@H](NC(=O)OCC1c2ccccc2-c2ccccc21)C(=O)O	0.00489

* * *

details: in isopropanol, 288.15 K
measure: solubility (mole fraction)

test-smiles	result
CSCC[C@H](NC(=O)OCC1c2ccccc2-c2ccccc21)C(=O)O	0.00765
